Target: cloned human m2 muscarinic receptor (Homo sapiens)
Construct: expressed in transfected cells; host or cells: CHO (stably transfected), membranes
Experiment: Muscarinic binding, inhibition of 3H-QNB binding, m2
Conditions: Ki for m1 receptors divided by Ki for m2 receptors; higher ratio = greater m2 selectivity
The label depends only on m1/m2 (Ki ratio): criterion met if it is at least 4, criterion not met if it is smaller.

> print(dat)
                                    compound     assigned.class
 1  c1cnc(Oc2ccc3c(c2)CCCC3N2CCN(C3CCCCC3)CC2)nc1 (stereo not drawn) [Compound 5]      criterion met
 2  c1cnc(Oc2ccc3c(c2)CCC3N2CCN(C3CCCCC3)CC2)nc1 (single isomer, unassigned) [Compound 10]      criterion met
 3  CC(=O)Nc1ccc(Oc2ccc3c(c2)OCCC3N2CCN(C3CCCCC3)CC2)cc1 (stereo not drawn) [Compound 4]  criterion not met
 4  c1cnc(Oc2ccc3c(c2)CCCCC3N2CCN(C3CCCCC3)CC2)nc1 (stereo not drawn) [Compound 8]  criterion not met
 5  Nc1ccc(Oc2ccc3c(c2)OCCC3N2CCN(C3CCCCC3)CC2)cc1 (stereo not drawn) [Compound 3]  criterion not met
 6  c1cnc(Oc2ccc3c(c2)CC(CC2CCCCC2)C3N2CCN(C3CCCCC3)CC2)nc1 (stereo not drawn) [Compound 12]  criterion not met
 7  COc1ccc(S(=O)(=O)c2ccc3c(c2)CCC3N2CCN(C3CCCCC3)C[C@H]2C)cc1 (single isomer, unassigned) [Compound 14]      criterion met
 8  O=[N+]([O-])c1ccc(Oc2ccc3c(c2)CCCC3N2CCN(C3CCCCC3)CC2)cc1 (stereo not drawn) [Compound 6]      criterion met
 9  c1cnc(Oc2ccc3c(c2)CCC3N2CCN(C3CCCCC3)CC2)nc1 (stereo not drawn) [Compound 9]      criterion met
10  c1cnc(Oc2ccc3c(c2)CCC3N2CCN(C3CCCCC3)CC2)nc1 (single isomer, unassigned) [Compound 11]  criterion not met
11  O=[N+]([O-])c1ccc(Oc2ccc3c(c2)OCCC3N2CCN(C3CCCCC3)CC2)cc1 (stereo not drawn) [Compound 2]  criterion not met
12  COc1ccc(S(=O)(=O)c2ccc3c(c2)CCC3N2CCN(C3CCCCC3)C[C@H]2C)cc1 (single isomer, unassigned) [Compound 15]      criterion met
13  O=S(=O)(c1ccccc1)c1ccc2c(c1)CCC2N1CCN(CCO)CC1 (stereo not drawn) [Compound 1]      criterion met

* * *

Here the recorded m4/m2 (Ki ratio) is given for each entry.
Target: cloned human m2 muscarinic receptor (Homo sapiens, UniProt P08172)
Construct: expressed in transfected cells; host or cells: CHO (stably transfected), membranes
Sequence (P08172 1-466): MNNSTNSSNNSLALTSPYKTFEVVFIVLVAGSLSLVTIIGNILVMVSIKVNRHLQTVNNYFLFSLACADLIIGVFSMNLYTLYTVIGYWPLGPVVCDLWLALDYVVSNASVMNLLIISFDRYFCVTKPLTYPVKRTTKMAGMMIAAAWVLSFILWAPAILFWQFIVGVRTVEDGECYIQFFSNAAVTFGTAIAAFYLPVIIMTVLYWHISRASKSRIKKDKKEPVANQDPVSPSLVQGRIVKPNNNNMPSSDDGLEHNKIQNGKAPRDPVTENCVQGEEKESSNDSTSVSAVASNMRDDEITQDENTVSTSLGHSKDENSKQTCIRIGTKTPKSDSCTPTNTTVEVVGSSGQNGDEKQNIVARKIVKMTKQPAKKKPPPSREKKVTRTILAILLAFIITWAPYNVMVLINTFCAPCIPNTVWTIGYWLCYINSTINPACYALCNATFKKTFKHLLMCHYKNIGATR
Assay: Muscarinic binding, inhibition of 3H-QNB binding, m2
Conditions: Ki for m4 divided by Ki for m2
MEASURED_ATTRIBUTE: m4/m2 (Ki ratio)

> print(dat)
                                   compound  relation.qualifier  test.result
1  O=S(=O)(c1ccccc1)c1ccc2c(c1)CCC2N1CCN(CCO)CC1 (stereo not shown)                   =          1.3
2  c1cnc(Oc2ccc3c(c2)CCCC3N2CCN(C3CCCCC3)CC2)nc1 (stereo not shown)                   =          1.6
3  COc1ccc(S(=O)(=O)c2ccc3c(c2)CCC3N2CCN(C3CCCCC3)C[C@H]2C)cc1 (single isomer, unassigned) [Compound 14]                   =          2.6
4  COc1ccc(S(=O)(=O)c2ccc3c(c2)CCC3N2CCC(N3CCCCC3)CC2)cc1 (stereo not shown)                   =          2.0
5  c1cnc(Oc2ccc3c(c2)CCC3N2CCN(C3CCCCC3)CC2)nc1 (single isomer, unassigned)                   =          1.5
6  CC(=O)Nc1ccc(Oc2ccc3c(c2)OCCC3N2CCN(C3CCCCC3)CC2)cc1 (stereo not shown)                   >          0.9
7  Nc1ccc(Oc2ccc3c(c2)OCCC3N2CCN(C3CCCCC3)CC2)cc1 (stereo not shown)                   =          0.3

* * *

Target: cloned human m2 muscarinic receptor (Homo sapiens, UniProt P08172)
Construct: expressed in transfected cells; host or cells: CHO (stably transfected), membranes
Assay: Muscarinic binding, inhibition of 3H-QNB binding, m2
Conditions: Ki for m4 divided by Ki for m2
Here the recorded m4/m2 (Ki ratio) is given for each entry.
MEASURED_ATTRIBUTE: m4/m2 (Ki ratio)

> print(dat)
                                   molecule                                       tgt  test.result
1  COc1ccc(S(=O)(=O)c2ccc3c(c2)CCC3N2CCN(C3CCCCC3)C[C@H]2C)cc1 (single isomer, unassigned) [Compound 15]  cloned human m2 muscarinic receptor (Homo sapiens, UniProt P08172)          2.5
2  c1cnc(Oc2ccc3c(c2)CCCCC3N2CCN(C3CCCCC3)CC2)nc1 (stereo not shown)  cloned human m2 muscarinic receptor (Homo sapiens, UniProt P08172)          0.9
3  O=[N+]([O-])c1ccc(Oc2ccc3c(c2)CCCC3N2CCN(C3CCCCC3)CC2)cc1 (stereo not shown)  cloned human m2 muscarinic receptor (Homo sapiens, UniProt P08172)          0.8
4  Nc1ccc(Oc2ccc3c(c2)CCCC3N2CCN(C3CCCCC3)CC2)cc1 (stereo not shown)  cloned human m2 muscarinic receptor (Homo sapiens, UniProt P08172)          0.8
